Recorded solubility kinetic for the following compounds
# condition.context: buffer; pH 7.4; 200.0 µM
Lab book: enter the figure in µg/mL, no units written.

Solved cases below.
O=C(NCc1ccco1)c1ccc(S(=O)(=O)N2CCCCC2)cc1    1.9
CC(=O)NCc1ccc(-c2csc(NC(=O)CCc3nc4ccccc4c(=O)[nH]3)n2)s1    7.3
Cn1cccc1C(=O)OCC(=O)N1c2ccccc2NC(=O)C1(C)C    12.7
O=C(NCCc1cccs1)C(c1ccccc1)c1ccccc1    1.5
Cc1cc(C(=O)COc2cccc([N+](=O)[O-])c2)c(C)n1C1CC1    6.2

Entry under review: O=C(NC1CCN(CCc2c[nH]c3ccccc23)CC1)c1ccccc1 . Reported solubility kinetic? 51.7

Another compound: COC(=O)c1scc(S(C)(=O)=O)c1-n1cccc1 35.2

Can you handle O=C1C(Nc2ccccc2)=CC(c2ccc(O)cc2)N1c1ccccc1 (stereo not given) next? 2

Consider next the compound CCCn1c(=O)c(-c2nc3ccccc3[nH]2)c(O)c2ccccc21 in the same way. 0.4

Do the same for N/C(CS(=O)(=O)c1ccccn1)=N\OC(=O)c1ccc(Cl)cc1 please 19.1

// next record Fc1ccc(N=Cc2ccc[nH]2)cc1 11

----------
# condition.context: buffer; pH 7.4; 200.0 µM
# label = bin(measured solubility kinetic), where bins are category 1 = under 10 µg/mL, category 2 = from 10 µg/mL up to 20 µg/mL, category 3 = 20 µg/mL and over

Example entries begin here.
CCOc1ccc(NC(=O)C2C(c3ccccc3)C2(Cl)Cl)cc1 (stereo not drawn)    category 1
Cc1ccccc1NC(=O)CCCN1C(=O)C2CC=CCC2C1=O (stereo not drawn)    category 3
COC(=O)c1ccc(COC(=O)CSCC(=O)Nc2ccc(C)cc2C)cc1    category 2
CC(C)c1ccc(C(N)=S)cc1    category 3
COc1ccc(NC(=O)C2=CC=CN3CCS(=O)(=O)N=C23)c(OC)c1    category 2
Cc1cccc(N2CC(C(=O)NC3CCCCCC3)CC2=O)c1C (stereo not drawn)    category 3
O=S(=O)(NC1=NCCC1)c1ccc(F)cc1F    category 3
Cc1ccc(C)c(OCCNc2ccc([N+](=O)[O-])cn2)c1    category 1
CCOC(=O)c1cc2sccc2n1CC(=O)C(C)(C)C    category 1
CN(CCc1ccccn1)C(=O)c1cccnc1Oc1ccccc1    category 3

Now let's try a different one.
Bin this entry: N=C1S/C(=C\c2ccco2)C(=O)N1c1nccs1 category 2

----------
# condition.context: buffer; pH 7.4; 200.0 µM
readout.kind: solubility kinetic

COC(=O)c1c(C)[nH]c(C=O)c1-c1ccccc1    > 36.5 µg/mL

Reported solubility kinetic, compound O=C(O)c1cc([N+](=O)[O-])c(Sc2nc3ccccc3[nH]2)c([N+](=O)[O-])c1 : ____ > 54 µg/mL

Could you do the same for N#Cc1ccccc1NC(=O)CN1CCOCC1 , please? > 36.8 µg/mL

# iterate: Cc1ccsc1CNC(=O)c1c(-c2ccccc2)noc1C 22.2 µg/mL

Ok, now COc1cccc(C(=O)Nc2c[nH]c(=O)[nH]c2=O)c1 36.1 µg/mL

Ok, now O=C(Nc1cccc(C(F)(F)F)c1)c1c(O)c2ccccc2[nH]c1=O < 0.4 µg/mL

Next compound: Clc1ccc(COC(Cn2ccnc2)c2ccc(Cl)cc2Cl)c(Cl)c1.O=[N+]([O-])O (stereo not drawn) 26.3 µg/mL

Can you check Cc1ccsc1C(=O)OCC(=O)NC1CCCC1 next? > 40.1 µg/mL

Follow-up entry: CC1CN(C(=S)Nc2cccc(Cl)c2)CC(C)O1 (stereo not drawn) > 42.7 µg/mL

Also check Nc1ccc(S(=O)(=O)[O-])cn1.[Na+] > 29.4 µg/mL

Quick one: COc1ccccc1C(=O)Nc1ccccc1C(=O)Nc1ccccc1 < 0.4 µg/mL

----------
# condition.context: buffer; pH 7.4; 200.0 µM
readout.kind: solubility kinetic

CC1CC(=O)Nc2ccccc2N1C(=O)CN1C(=O)C(=O)N(C)C1=O (stereo not given)    > 51.6 µg/mL
O=C(COc1ccc([N+](=O)[O-])cc1Cl)NCCN1C(=O)CSC1=O    > 56.1 µg/mL
CC(C)(C)OC(=O)NCCC(=O)N/N=C/c1cccc2cccnc12    > 51.4 µg/mL
COc1ccc(NC(=O)c2cc([N+](=O)[O-])ccc2O)cc1    > 43.2 µg/mL
COC(=O)[C@H](Cc1ccccc1)NC(=O)NCc1ccc(C)cc1    > 49 µg/mL

Endpoint output: solubility kinetic of Cc1ccc(S(=O)(=O)CC(=O)N2CCOCC2)cc1 . Value? > 42.5 µg/mL

Now the same for Oc1cncc(Cc2ccccc2)c1 > 27.8 µg/mL

# iterate: Cc1cc(S(=O)(=O)N2CCOCC2)c(C)s1 > 39.2 µg/mL

Next up: CNC(=O)Oc1ccc2c(c1)[C@]1(C)CCN(C)C1N2C.O=C(O)c1ccccc1O (stereo not given in full) > 62 µg/mL

Entry COc1ccc(CN=Cc2c(C(=O)O)[nH]c3ccccc23)cc1 please > 46.3 µg/mL

// same read-out, input: Cc1nc2ccccc2c(=O)n1Cc1ccc([N+](=O)[O-])cc1 > 44.3 µg/mL

Input O=C(O)c1ccc(N2C(=O)CSC2c2cccc([N+](=O)[O-])c2)cc1 (stereo not given) > 51.7 µg/mL

Another compound to check: Cc1ccc(C(=O)NCC(=O)Nc2cc(C)ccn2)cc1 > 42.5 µg/mL

Quick one: CCOC(=O)C1CCN(C(=S)NC(=O)c2cccs2)CC1 > 49 µg/mL

Same lookup for CCc1nnc(NC(=O)c2cc(Cl)ccn2)s1 , please. > 40.3 µg/mL

Then what about the compound CC(NC(=O)c1ccccc1F)c1ccccc1 (stereo not given) ? > 36.5 µg/mL

Now the same for Clc1ccc(Cl)c(-c2nc(-c3ccncc3)no2)c1 < 0.2 µg/mL

Then what about the compound CC(Sc1nccn1C)C(=O)Nc1ccc(C(N)=O)cc1 (stereo not given) ? > 45.7 µg/mL

Entry COC(=O)C1=C(Nc2cc(Cl)cc(Cl)c2)CSC1 please < 0.7 µg/mL

What would you report for CCOC(=O)N1CCN(c2ccncc2S(=O)(=O)N2CCCCC2)CC1 ? > 57.4 µg/mL

----------
# condition.context: buffer; pH 7.4; 200.0 µM
Below is a list of entries, each paired with its recorded solubility kinetic value.
Could you give me the number in µg/mL? Just the number is fine.

Examples with their reported solubility kinetic follow.
Cc1cc(C)c(S(=O)(=O)N2CCN(C3CC(=O)N(c4ccccc4Cl)C3=O)CC2)c(C)c1 (centres undefined)    16.7
O=C(NC1CCCCCC1)C(=S)N1CCOCC1    23.1
CN(CCO)C(=O)C(c1ccccc1)c1ccccc1    36.2

Would you kindly share the measured solubility kinetic for CCOc1ccc(C(=O)NC2CCCCCCC2)cc1 ? 2.5

And for c1ccc2[nH]c(SN3CCOCC3)nc2c1 ? 10.8

What do we get for S=C(NC1CC1)N1CCCc2ccccc21 ? 33

Would you mind doing Cc1cc(N2CCN(c3ncccn3)CC2)nc2c(C)cccc12 as well? 0.2

Proceed to Cc1ccccc1OCC(=O)N1CCc2ccccc2C1 38.6

Do the same for C(#CCN1CCCCC1)COCc1ccccc1.Cl please 39

Further, for COc1cc2ccccc2cc1C(=O)Nc1ccc(N2CCOCC2)cc1 ? 0.8

How about this compound: CC(OC(=O)[C@@H]1CCCN1C(=O)c1cccs1)C(=O)Nc1cccc([N+](=O)[O-])c1 (some centres undefined) 18.4

S=C(NCC1CCCO1)NC12CC3CC(CC(C3)C1)C2 (centres undefined) , same question. 4

----------
# condition.context: buffer; pH 7.4; 200.0 µM
readout.kind: solubility kinetic (µg/mL)
Answer with a number only, understood to be in µg/mL.

COc1ccccc1NC(=O)Nc1sccc1-c1nc2ccccc2s1    2.8

// lookup solubility kinetic for CN(CC(=O)NC(=O)Nc1ccccc1F)Cc1ccccc1 4.7

----------
Quick list: solubility kinetic per entry.
# condition.context: buffer; pH 7.4; 200.0 µM

CCCC(=O)Nc1ccc(C=C(C(C)=O)C(C)=O)cc1    > 41 µg/mL
Cc1ccc(C(=O)N2CCN(c3ccccn3)CC2)cc1C    > 44.3 µg/mL
NC(=O)CN1C(=O)NC2(CCCc3ccccc32)C1=O (stereo not given)    > 41 µg/mL
Clc1ccc2ccc3cccnc3c2n1    > 32.2 µg/mL

Proceed to the following item.
# get_value(readout='solubility kinetic', item= Cc1cc(C)cc(NC(=O)CN2CCN(C(=O)C3CCCO3)CC2)c1 (stereo not given) ) > 51.8 µg/mL

----------
# condition.context: buffer; pH 7.4; 200.0 µM
readout.kind: solubility kinetic (µg/mL)
Give a bare numeral; the unit µg/mL is implied.

Use these answered entries as a reference point.
CC(C)C(=O)N1CCN(c2ccccc2NC(=O)c2ccc(Br)o2)CC1    52.2
O=C(c1cc([N+](=O)[O-])cc([N+](=O)[O-])c1)N1CCN(C(=O)c2ccco2)CC1    54
COc1cc(OC)cc(C(=O)Nc2cc(C)on2)c1    9.7
Cc1ccc2nc(-c3ccc(O)cc3)oc2c1    1.7

So what does the record say about solubility kinetic for CCN1C(=O)c2cccc3c(N)ccc(c23)C1=O ? 7.5

What about Cc1ccc(-c2nc(N)sc2C)cc1 ? 30.2

Another compound to look at: O=C1/C(=C\c2ccsc2)N2CCC1CC2 21.3

FYI, the data here is from PubChem BioAssay AID1996.
